tested system: Full length human PD1 (huPD1) on cells (human, UniProt Q15116 25-288)
Sequence (Q15116 25-288 limits assumed): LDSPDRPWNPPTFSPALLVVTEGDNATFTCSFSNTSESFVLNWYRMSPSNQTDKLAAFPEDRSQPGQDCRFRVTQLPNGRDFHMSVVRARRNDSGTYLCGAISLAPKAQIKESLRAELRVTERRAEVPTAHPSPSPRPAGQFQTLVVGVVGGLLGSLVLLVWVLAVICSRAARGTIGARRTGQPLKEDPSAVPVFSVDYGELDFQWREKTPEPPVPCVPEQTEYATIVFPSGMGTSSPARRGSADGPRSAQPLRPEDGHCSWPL
experimental protocol: cell-based or functional assay
CMV EC50, nM (IFN-γ induction) below 0.07 nM gives label 0; CMV EC50, nM (IFN-γ induction) at or above it gives label 1.

binder: PD1B200 (antibody, V domains shown, also called PD1H164/PD1L168) VH: QVQLVQSGAEVKKPGSSVKVSCKASGGTFSDYVISWVRQAPGQGLEWMGGIIPIYGTANYAQKFQGRVTITADESTSTAYMELSSLRSEDTAVYYCARGTLDRTGHLDYWGQGTLVTVSS VL: EIVLTQSPATLSLSPGERATLSCRASQSVDNYLAWYQQKPGQAPRLLIHDASNRATGIPARFSGSGSGTDFTLTISSLEPEDFAVYYCQQRSAWPLTFGQGTKVEIK
assigned category: label 1
--
binder: PD1B243 (antibody, human IgG4 S228P, kappa, V domains shown) VH: EVQLVESGGGLVQPGGSLRLSCAASGFAFSRYDMSWVRQAPGKGLESVAYISGGGANTYYLDNVKGRFTISRDNAKNSLYLQMNSLRAEDTAVYYCASPYLSYFDVWGQGTLVTVSS VL: EIVMTQSPATLSVSPGERATLSCRASQSLSDYLHWYQQKPGQAPRLLIKSASQSISGIPARFSGSGSGTEFTLTISSLQSEDFAVYYCQNGHSFPYTFGQGTKLEIKR
assigned category: label 0
--
binder: PD1B195 (antibody, V domains shown, also called PD1H170/PD1L67) VH: QVQLVQSGAEVKKPGSSVKVSCKASGGTFSSYAISWVRQAPGQGLEWMGGIIPIFDTANYAQKFQGRVTITADESTSTAYMELSSLRSEDTAVYYCARPGLAAAYDTGSLDYWGQGTLVTVSS VL: EIVLTQSPATLSLSPGERATLSCRASQSVDSYLAWYQQKPGQAPRLLIYDASNRATGIPARFSGSGSGTDFTLTISSLEPEDFAVYYCQQREYWPLTFGQGTKVEIK
assigned category: label 1
--
binder: PD1B201 (antibody, V domains shown, also called PD1H164/PD1L190) VH: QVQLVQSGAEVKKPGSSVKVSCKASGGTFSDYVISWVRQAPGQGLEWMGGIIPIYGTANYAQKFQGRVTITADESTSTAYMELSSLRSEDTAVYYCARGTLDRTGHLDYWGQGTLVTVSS VL: EIVLTQSPATLSLSPGERATLSCRASQSVSNYLAWYQQKPGQAPRLLIYDASNRATGIPARFSGSGSGTDFTLTISSLEPEDFAVYYCQQRNYWPLTFGQGTKVEIK
assigned category: label 1
--
binder: PD1B196 (antibody, V domains shown, also called PD1H170/PD1L148) VH: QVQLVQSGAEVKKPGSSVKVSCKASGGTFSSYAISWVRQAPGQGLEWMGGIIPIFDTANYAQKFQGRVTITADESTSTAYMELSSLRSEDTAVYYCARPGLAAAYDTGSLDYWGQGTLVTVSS VL: EIVLTQSPATLSLSPGERATLSCRASQSVRSYLAWYQQKPGQAPRLLIYDASNRATGIPARFSGSGSGTDFTLTISSLEPEDFAVYYCQQRNYWPLTFGQGTKVEIK
assigned category: label 1

Please turn your attention to the following entry.
[in] Decide: CMV EC50, nM (IFN-γ induction) of PD1B244 (antibody, human IgG4 S228P, kappa, V domains shown) VH: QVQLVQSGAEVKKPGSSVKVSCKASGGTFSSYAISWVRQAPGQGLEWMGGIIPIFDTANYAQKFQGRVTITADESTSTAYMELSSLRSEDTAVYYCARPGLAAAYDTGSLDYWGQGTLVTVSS VL: EIVLTQSPATLSLSPGERATLSCRASQSVRSYLAWYQQKPGQAPRLLIYDASNRATGIPARFSGSGSGTDFTLTISSLEPEDFAVYYCQQRNYWPLTFGQGTKVEIKR >= 0.07 nM?
[out] label 0
